B1: Unconventional myosin-Ie, residues 1051 to 1108; numbered along this chain, Q12965 (parent)
chain: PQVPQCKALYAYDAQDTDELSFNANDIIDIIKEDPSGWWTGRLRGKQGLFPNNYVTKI

# Variants of: B1
# procedure_text: abundance fitness (aPCA) (normalised: wild type 0, dead -1); higher = more abundant; growth selection in yeast, the domain comes from the species named
# measurement_conditions: Homo sapiens
measured_attribute: abundance fitness

As a guide, the following entries are already answered.
INSERT INTO assay_data (residue_string, result) VALUES
  ('PQVPQCKALYAYDQQDTDELSFNANDIIDIIKEDPSGWWTGRLRGKQGLFPNNYVTKI [A14Q]', -0.345),
  ('PQVPQCKALYAYDAQDTDELSFNANDIIDIIKEDPSGWWTGRLDGKQGLFPNNYVTKI [R44D]', -0.019),
  ('PQVPACKALYAYDAQDTDELSFNANDIIDIIKEDPSGWWTGRLRGKQGLFPNNYVTKI [Q5A]', -0.245),
  ('PQVPQCKALYAYDAQDTDELSFNAEDIIDIIKEDPSGWWTGRLRGKQGLFPNNYVTKI [N25E]', -0.117),
  ('PQVPQCKALYAYDAQDTDELSFNANDIIDIIKEDPSGWWTGRLRGKQGLFPNVYVTKI [N53V]', -0.176),
  ('PQVPQCKALYAYDAQDTDELSFNANDIIDIIKEDPSGWETGRLRGKQGLFPNNYVTKI [W39E]', -1),
  ('PQVPQCKALYAYTAQDTDELSFNANDIIDIIKEDPSGWWTGRLRGKQGLFPNNYVTKI [D13T]', 0.012),
  ('PQVPQCKALYAYDAQDTDELSFNANDIIDIIKEDPSGWWTGRLRLKQGLFPNNYVTKI [G45L]', -0.416);

Given the entry PQVPQCKALYAYDAQDTDELSFNANDIIDIIKEDPSGWWTGRLRGKQGLCPNNYVTKI [F50C] , report its measured abundance fitness.
-0.94

How about PQVPQCKALYAYDAQDTDELSFNANDIIDIIKEDPSGLWTGRLRGKQGLFPNNYVTKI [W38L] ?
-0.211
